tested on: SW-620 colon; assay: NCI tumour cell line growth inhibition, 48 h; in the data active = GI50 below about 0.43 µM; inactive = the rest
*1 amine or outer side, *2 acyl side, *3 side chain or, on linkers, in order; H or OH if unused. Where a SMILES comes first, the peptide text is derived from it. Bridges are numbered along the chain shown (N, C = ends). [ ]: non-standard residue; d: D form. The star is where a group is joined. Phe(3,5-F2) = N[C@@H](Cc1cc(F)cc(F)c1)C(=O)O; Pro(4R-Me) = C[C@H]1CN[C@H](C(=O)O)C1; aThr = C[C@H](O)[C@H](N)C(=O)O; Pip = O=C(O)[C@@H]1CCCCN1; X10 = Fc1cc(C2CC2)ccc1N*; CO = O=C([*:1])[*:2]
Log the outcome using a class from active, inactive

Previously resolved entries follow.
1. C[C@@H]1C[C@H]2C(=O)O[C@@H](C)[C@H](NC(=O)[C@H](Cc3cc(F)cc(F)c3)NC(=O)Nc3ccc(C4CC4)cc3F)C(=O)N3CCC[C@H]3C(=O)N3CCCC[C@H]3C(=O)N[C@@H](C)C(=O)N2C1 ({X10-CO}-[Phe(3,5-F2)][aThr]P[Pip]A[Pro(4R-Me)]; ester 2-C); active
2. COC([CH2][Hg][n]1cnc2c1c(=O)n(C)c(=O)n2C)CN1C(=O)c2ccccc2S1(=O)=O (centres undefined); inactive
3. Cc1cc(-c2nc(C(=O)Nc3cc4oc(N5CCOCC5)nc4nc3N3CC[C@@H](O)C3)co2)ccn1; inactive

We next turn to a different compound, shown below.
Hello, I am checking results. What call was entered for COC(=O)/C=C1\S/C(=N\NC(=O)c2cc3ccc2/C=C\c2ccc(cc2)/C=C\3)N(c2ccccc2)C1=O ? inactive
